Target: X-box-binding protein 1 (Homo sapiens) (UniProt P17861)
Sequence (P17861 whole entry, looked up): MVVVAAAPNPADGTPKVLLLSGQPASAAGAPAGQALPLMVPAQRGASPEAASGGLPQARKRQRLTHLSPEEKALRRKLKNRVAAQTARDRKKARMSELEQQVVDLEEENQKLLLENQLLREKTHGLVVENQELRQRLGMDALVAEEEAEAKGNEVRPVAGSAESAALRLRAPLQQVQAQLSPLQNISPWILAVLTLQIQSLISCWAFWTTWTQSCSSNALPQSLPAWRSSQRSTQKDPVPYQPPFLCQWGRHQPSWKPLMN
Experiment: ATG_Xbp1_CIS: Attagene CIS-FACTORIAL HepG2 Assay for human X-box Binding Protein 1 (XBP1) (AID 2282972)
Conditions: HepG2 XBP1 cis-element reporter, Attagene multiplex; actives raise or lower the signal
The source made the active and inactive calls. The calls were made as follows: active = hit-call score of the fitted dose curve at least 0.9, where 1 is the maximum; inactive = score below 0.9.
Outcomes: 1 (yes) (active), 0 (no) (inactive)

[
  {
    "COMPOUND": "CC1(C)C(=O)N(CO)C(=O)N1CO",
    "SUBJECT OF TEST": "X-box-binding protein 1 (Homo sapiens) (UniProt P17861)",
    "QUALITATIVE LABEL": "0 (no)"
  },
  {
    "COMPOUND": "Cn1ccnc1",
    "SUBJECT OF TEST": "X-box-binding protein 1 (Homo sapiens) (UniProt P17861)",
    "QUALITATIVE LABEL": "0 (no)"
  },
  {
    "COMPOUND": "Clc1cccnc1",
    "SUBJECT OF TEST": "X-box-binding protein 1 (Homo sapiens) (UniProt P17861)",
    "QUALITATIVE LABEL": "0 (no)"
  },
  {
    "COMPOUND": "CCCCC(CC)COS(=O)(=O)O (stereo not drawn)",
    "SUBJECT OF TEST": "X-box-binding protein 1 (Homo sapiens) (UniProt P17861)",
    "QUALITATIVE LABEL": "0 (no)"
  },
  {
    "COMPOUND": "CCCSSCCC",
    "SUBJECT OF TEST": "X-box-binding protein 1 (Homo sapiens) (UniProt P17861)",
    "QUALITATIVE LABEL": "0 (no)"
  },
  {
    "COMPOUND": "CC(C)=CCCC(C)=CC#N",
    "SUBJECT OF TEST": "X-box-binding protein 1 (Homo sapiens) (UniProt P17861)",
    "QUALITATIVE LABEL": "0 (no)"
  },
  {
    "COMPOUND": "CC1(C)[C@@H]2CC[C@@]1(C)C(=O)C2",
    "SUBJECT OF TEST": "X-box-binding protein 1 (Homo sapiens) (UniProt P17861)",
    "QUALITATIVE LABEL": "0 (no)"
  },
  {
    "COMPOUND": "CC/C=C\\CCOC(=O)c1ccccc1O",
    "SUBJECT OF TEST": "X-box-binding protein 1 (Homo sapiens) (UniProt P17861)",
    "QUALITATIVE LABEL": "0 (no)"
  },
  {
    "COMPOUND": "CCCCCCO",
    "SUBJECT OF TEST": "X-box-binding protein 1 (Homo sapiens) (UniProt P17861)",
    "QUALITATIVE LABEL": "0 (no)"
  },
  {
    "COMPOUND": "CCCCCCCCCCCC(=O)OCC",
    "SUBJECT OF TEST": "X-box-binding protein 1 (Homo sapiens) (UniProt P17861)",
    "QUALITATIVE LABEL": "0 (no)"
  },
  {
    "COMPOUND": "CCOC(=O)c1ccc(C)cc1",
    "SUBJECT OF TEST": "X-box-binding protein 1 (Homo sapiens) (UniProt P17861)",
    "QUALITATIVE LABEL": "0 (no)"
  },
  {
    "COMPOUND": "CCNc1nc(NC(C)(C)C)nc(OC)n1",
    "SUBJECT OF TEST": "X-box-binding protein 1 (Homo sapiens) (UniProt P17861)",
    "QUALITATIVE LABEL": "0 (no)"
  },
  {
    "COMPOUND": "CCCCCCCCCCCCCCCCCCOS(=O)(=O)O",
    "SUBJECT OF TEST": "X-box-binding protein 1 (Homo sapiens) (UniProt P17861)",
    "QUALITATIVE LABEL": "1 (yes)"
  }
]
